Target: MNK2a (pre-activated GST-MNK2a) (Homo sapiens (Human))
Sequence (Q9HBH9 whole entry): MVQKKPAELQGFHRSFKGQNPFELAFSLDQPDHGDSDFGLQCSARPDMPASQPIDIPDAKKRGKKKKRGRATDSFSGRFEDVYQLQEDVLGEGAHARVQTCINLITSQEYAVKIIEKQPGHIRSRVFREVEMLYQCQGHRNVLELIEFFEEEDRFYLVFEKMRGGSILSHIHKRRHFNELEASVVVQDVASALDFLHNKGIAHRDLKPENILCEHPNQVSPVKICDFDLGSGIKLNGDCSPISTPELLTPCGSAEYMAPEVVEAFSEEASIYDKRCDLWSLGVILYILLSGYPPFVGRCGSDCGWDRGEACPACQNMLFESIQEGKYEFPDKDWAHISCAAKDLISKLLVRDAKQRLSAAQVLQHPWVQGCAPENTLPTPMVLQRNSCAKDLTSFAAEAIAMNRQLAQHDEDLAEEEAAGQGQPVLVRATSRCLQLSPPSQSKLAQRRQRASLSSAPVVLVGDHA
Experiment: MNK2a in vitro kinase assay (assay 1), ADP-Glo
Conditions: read-out: Mnk2 IC50
Result type: IC50 (nM)

a. COc1c(N=S(C)(C)=O)cc2ncnc(Nc3ccc(F)cc3O[C@@H]3CO[C@H]4[C@@H]3OC[C@@H]4F)c2c1C
b. COc1c(N=S2(=O)CCCC2)cc2ncnc(Nc3ccc(F)cc3O[C@H](C)C(=O)N[C@@H](C)C(F)(F)F)c2c1C
c. Cc1c(OCCN2CCN(C)C(=O)C2)c(N=S(C)(C)=O)cc2ncnc(Nc3ccc(F)cc3O[C@H](C)C(F)(F)F)c12
d. COc1c(N=S2(=O)CCCC2)cc2ncnc(Nc3ccc(F)cc3O[C@@H]3CO[C@@H]4CCO[C@@H]43)c2c1C
**Query** List the items above again, this time ordered by increasing IC50. Write the labels in rank order as requested.
**Result** d, b, c, a
(d: 1.2 nM, b: 2.5 nM, c: 4.1 nM, a: 12.6 nM)

P. COc1c(N=S2(=O)CCCC2)cc2ncnc(Nc3cccnc3O[C@@H]3CO[C@@H]4CCO[C@@H]43)c2c1C
Q. COc1c(N=S2(=O)CCCCC2)cc2ncnc(Nc3ccc(F)cc3O[C@@H]3CO[C@@H]4CCO[C@@H]43)c2c1C
**Query** Pick one, P or Q : lowest reported IC50. Please indicate the selected item by its label.
**Result** Q

====

Target: MNK1a (pre-activated GST-MNK1a) (Homo sapiens (Human))
Sequence (Q9BUB5 other isoform, or with tags, fused parts or gaps): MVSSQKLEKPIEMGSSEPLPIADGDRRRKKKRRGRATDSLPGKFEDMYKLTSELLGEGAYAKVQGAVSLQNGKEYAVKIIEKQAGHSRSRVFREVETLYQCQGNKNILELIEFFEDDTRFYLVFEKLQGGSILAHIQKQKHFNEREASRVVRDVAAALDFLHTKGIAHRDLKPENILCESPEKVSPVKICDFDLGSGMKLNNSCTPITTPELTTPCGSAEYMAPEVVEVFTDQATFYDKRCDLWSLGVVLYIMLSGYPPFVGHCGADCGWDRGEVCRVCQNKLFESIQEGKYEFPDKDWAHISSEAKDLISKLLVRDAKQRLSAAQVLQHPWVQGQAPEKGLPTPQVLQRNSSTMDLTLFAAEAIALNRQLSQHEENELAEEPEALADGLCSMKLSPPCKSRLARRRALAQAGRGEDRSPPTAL
Experiment: MNK1 in vitro kinase assay (assay 2), Z'-LYTE
Format: biochemical
Conditions: compound concentration of 1 μM, read-out: Mnk1 % Inh
Result type: inhibition at 1 µM (%)

COc1c(N=S2(=O)CCCC2)cc2ncnc(Nc3ccc(F)cc3O[C@@H]3CO[C@@H]4CCO[C@@H]43)c2c1Cl [Example 2.33] :: 106
COc1c(N=S2(=O)CCOCC2)cc2ncnc(Nc3ccc(F)cc3O[C@@H]3CO[C@@H]4CCO[C@@H]43)c2c1C [Example 2.17] :: 94
COc1c(N=S2(=O)CCCC2)cc2ncnc(Nc3ccc(F)cc3O[C@H](C)C(F)(F)F)c2c1C [Example 2.54] :: 91
COc1c(N=S(C)(=O)CCO)cc2ncnc(Nc3ccc(F)cc3O[C@@H]3CO[C@@H]4CCO[C@@H]43)c2c1C (stereo partly shown) [Example 2.23] :: 105

====

Target: MNK2a (pre-activated GST-MNK2a) (Homo sapiens (Human))
Assay: MNK2a in vitro kinase assay (assay 1), ADP-Glo
Settings: read-out: Mnk2 IC50
Result type: IC50 (nM)

COc1c(N=S(C)(=O)C2CC2)cc2ncnc(Nc3ccc(F)cc3O[C@@H]3CO[C@@H]4CCO[C@@H]43)c2c1C (stereo partly drawn) :: 2.3
COc1c(N=S2(=O)CCC2)cc2ncnc(Nc3ccc(F)cc3O[C@H](C)C(=O)N[C@@H](C)C(F)(F)F)c2c1C :: 1.6
COc1c(N=S(C)(C)=O)cc2ncnc(Nc3ccc(F)cc3O[C@@H]3CO[C@H]4[C@@H]3OC[C@H]4OC)c2c1Cl :: 2.2

====

Biological target: MNK1a (pre-activated GST-MNK1a) (Homo sapiens (Human))
Assay: MNK1 in vitro kinase assay (assay 2), Z'-LYTE
pIC50: −log10 of the molar value.
Result type: pIC50

Below, each entry is followed by its recorded pIC50 result.
COc1c(N=S2(=O)CCC2)cc2ncnc(Nc3ccc(F)cc3O[C@@H]3CO[C@H]4[C@@H]3OC[C@@H]4F)c2c1C :: 7.19
COc1c(N=S2(=O)CCC2)cc2ncnc(Nc3ccc(F)cc3O[C@H](C)C(=O)NCC(F)(F)F)c2c1C :: 7.25
CCOc1c(N=S(C)(C)=O)cc2ncnc(Nc3ccc(F)cc3O[C@H](C)C(F)(F)F)c2c1C :: 7.27
COc1c(N=S2(=O)CCC2)cc2ncnc(Nc3cccnc3O[C@@H]3CO[C@@H]4CCO[C@@H]43)c2c1C :: 7.48
COCCOc1c(N=S(C)(C)=O)cc2ncnc(Nc3ccc(F)cc3O[C@H](C)C(F)(F)F)c2c1C :: 6.95
Cc1c(OC2CCOC2)c(N=S(C)(C)=O)cc2ncnc(Nc3ccc(F)cc3O[C@H](C)C(F)(F)F)c12 (stereo partly drawn) :: 6.93
COc1c(N=S(C)(C)=O)cc2ncnc(Nc3ccc(F)cc3O[C@@H]3CO[C@H]4[C@@H]3OC[C@@H]4F)c2c1C :: 7.60
Cc1c(OCCCN2CCOCC2)c(N=S2(=O)CCC2)cc2ncnc(Nc3ccc(F)cc3O[C@H](C)C(F)(F)F)c12 :: 7.38
Cc1c(OCCN2CCN(C)C(=O)C2)c(N=S(C)(C)=O)cc2ncnc(Nc3ccc(F)cc3O[C@H](C)C(F)(F)F)c12 :: 7.19
COc1c(N=S2(=O)CCC2)cc2ncnc(Nc3ccc(F)cc3O[C@H](C)C(F)(F)F)c2c1C :: 7.13

a. COc1c(N=S(C)(C)=O)cc2ncnc(Nc3ccc(F)cc3O[C@@H]3CO[C@@H]4CCO[C@@H]43)c2c1C
b. COc1c(N=S(C)(C)=O)cc2ncnc(Nc3cc4cn[nH]c4cc3OC(C)C)c2c1C
**Query** Pick one, a or b : lowest reported pIC50. Please indicate the selected item by its label.
**Result** b

I. COc1c(N=S2(=O)CCC2)cc2ncnc(Nc3ccc(F)cc3O[C@H]3CCOC3)c2c1C
II. COc1c(N=S2(=O)CCCC2)cc2ncnc(Nc3ccc(F)cc3O[C@H]3CC[C@H](O)CC3)c2c1C
III. COc1c(N=S2(=O)CCC2)cc2ncnc(Nc3ccc(Cl)cc3O[C@H](C)C(=O)NCC(F)(F)F)c2c1C
IV. Cc1c(OCCCN2CCN(C)C(=O)C2)c(N=S(C)(C)=O)cc2ncnc(Nc3ccc(F)cc3O[C@H](C)C(F)(F)F)c12
**Query** Hey, quick one: sort these by pIC50, low to high? Write the labels in rank order as requested.
**Result** IV, III, II, I

P. COc1c(N=S2(=O)CCCC2)cc2ncnc(Nc3ccc(F)cc3O[C@H]3CCOC3)c2c1C
Q. COc1c(N=S(C)(C)=O)cc2ncnc(Nc3ccc(F)cc3O[C@H]3COC[C@@H]3O)c2c1C
R. Cc1c(OCC2CC2)c(N=S(C)(C)=O)cc2ncnc(Nc3ccc(F)cc3O[C@H](C)C(F)(F)F)c12
S. COc1c(N=S2(=O)CCC2)cc2ncnc(Nc3cc4cn[nH]c4cc3OC(C)C)c2c1C
**Query** List from greatest to least pIC50. Write the labels in rank order as requested.
**Result** P, Q, S, R
(P: 7.66, Q: 7.26, S: 7.06, R: 6.74)

1. COc1c(N=S2(=O)CCC2)cc2ncnc(Nc3ccc(F)cc3O[C@@H]3CO[C@@H]4CCO[C@@H]43)c2c1C
2. COc1c(N=S2(=O)CCCC2)cc2ncnc(Nc3ccc(F)cc3O[C@@H]3CO[C@H]4[C@@H]3OC[C@H]4O)c2c1C
**Query** Pick one, 1 or 2 : lowest reported pIC50. Please indicate the selected item by its label.
**Result** 1
(1: 7.28, 2: 7.85)

I. Cc1c(OCCCN2CCCC2)c(N=S(C)(C)=O)cc2ncnc(Nc3ccc(F)cc3O[C@H](C)C(F)(F)F)c12
II. COc1c(N=S(C)(C)=O)cc2ncnc(Nc3ccc(F)cc3O[C@@H]3CO[C@@H]4CCO[C@@H]43)c2c1Cl
**Query** Pick one, I or II : lowest reported pIC50. Please indicate the selected item by its label.
**Result** I

P. COc1c(N=S2(=O)CCCC2)cc2ncnc(Nc3ccc(F)cc3O[C@H]3COC[C@@H]3O)c2c1C
Q. COc1c(N=S2(=O)CCC2)cc2ncnc(Nc3ccc(F)cc3O[C@@H]3CO[C@H]4[C@@H]3OC[C@H]4O)c2c1C
**Query** Pick one, P or Q : lowest reported pIC50. Please indicate the selected item by its label.
**Result** P
(P: 7.43, Q: 7.74)
